molecular target: human muscarinic M2 receptor (Homo sapiens); test: Alphascreen Surefire phospho-ERK1/2 functional assay, M2; conditions: CHO, read-out: % Emax cf. ACh, M2, CHO cells stably expressing human M2; relative to ACh
Sequence (P08172 whole entry): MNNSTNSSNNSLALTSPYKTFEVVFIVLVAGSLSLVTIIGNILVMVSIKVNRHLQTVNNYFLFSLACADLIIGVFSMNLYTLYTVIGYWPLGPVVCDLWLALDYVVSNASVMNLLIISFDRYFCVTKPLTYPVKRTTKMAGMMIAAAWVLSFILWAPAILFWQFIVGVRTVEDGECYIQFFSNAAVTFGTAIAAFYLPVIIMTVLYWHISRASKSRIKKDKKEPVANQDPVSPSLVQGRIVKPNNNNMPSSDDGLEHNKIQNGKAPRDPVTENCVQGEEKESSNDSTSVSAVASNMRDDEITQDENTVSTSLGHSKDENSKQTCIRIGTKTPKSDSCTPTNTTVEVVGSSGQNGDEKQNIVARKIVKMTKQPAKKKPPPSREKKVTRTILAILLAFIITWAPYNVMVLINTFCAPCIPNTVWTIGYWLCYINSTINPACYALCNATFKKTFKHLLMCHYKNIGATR
Emax listing for selected compounds.

[
  {
    "compound": "COC(=O)N1CCC2(CC(N3CCC(c4nccn4C)CC3)C2)C1 (single isomer, unassigned) [1-6 Isomer 2]",
    "unit": "%",
    "Emax": 57
  },
  {
    "compound": "CCOC(=O)N1CCC2(CC(N3CCC(c4nc(Cl)c(Cl)n4C)CC3)C2)C1 (single isomer, unassigned) [1-17 Isomer 2]",
    "unit": "%",
    "Emax": 14
  },
  {
    "compound": "CCOC(=O)N1CCC2(CC(N3CCC([C@@H]4CCCN4C(=O)CC(F)(F)F)CC3)C2)C1 (single isomer, unassigned) [2-53 Isomer 2]",
    "unit": "%",
    "Emax": 10
  },
  {
    "compound": "CCOC(=O)N1CCC2(CC(N3CCC(N4CSC[C@@H]4C(=O)OC)CC3)C2)C1 (single isomer, unassigned) [2-97 Isomer 2]",
    "unit": "%",
    "Emax": 3
  },
  {
    "compound": "COc1ncccc1C1CCN(C2CC3(CCN(C(=O)OCCF)C3)C2)CC1 (single isomer, unassigned) [3-5 Isomer 2]",
    "unit": "%",
    "Emax": 65
  },
  {
    "compound": "CCOC(=O)N1CCC2(CC(N3CCC(C4CCCN4C(=O)OCC)CC3)C2)C1 (single isomer, unassigned) [2-14 Isomer 2]",
    "unit": "%",
    "Emax": 3
  },
  {
    "compound": "CCOC(=O)N1CCC2(CC(N3CCC(N4CC(F)(F)C[C@@H]4C(=O)N(C)C)CC3)C2)C1 (single isomer, unassigned) [2-89 Isomer 2]",
    "unit": "%",
    "Emax": 68
  },
  {
    "compound": "CCOC(=O)N1CCC2(CC(N3CCC([C@@H]4CCCN4C(=O)N(C)C)CC3)C2)C1 (single isomer, unassigned) [2-21 Isomer 2]",
    "unit": "%",
    "Emax": 4
  },
  {
    "compound": "O=C(OCCF)N1CCC2(CC(N3CCC(c4ccc[nH]c4=O)CC3)C2)C1 (single isomer, unassigned) [3-3 Isomer 2]",
    "unit": "%",
    "Emax": 50
  },
  {
    "compound": "CCOC(=O)N1CCC2(CC(N3CCC(C4CC(C)CNC4=O)CC3)C2)C1 (single isomer, unassigned) [4-4 Isomer 2]",
    "unit": "%",
    "Emax": 19
  },
  {
    "compound": "CCOC(=O)N1CCC2(CC(N3CCC([C@@H]4C[C@H](F)CN4C(=O)CC)CC3)C2)C1 (single isomer, unassigned) [2-59 Isomer 2]",
    "unit": "%",
    "Emax": 11
  },
  {
    "compound": "CCOC(=O)N1CCC2(CC(N3CCC(C4CCCN4C=O)CC3)C2)C1 (single isomer, unassigned) [2-2 Isomer 2]",
    "unit": "%",
    "Emax": 53
  },
  {
    "compound": "CCOC(=O)N1CCC2(CC(N3CCC(C4CCCN(C(C)C)C4=O)CC3)C2)C1 (single isomer, unassigned) [4-6 Isomer 2]",
    "unit": "%",
    "Emax": 75
  }
]
